test system: A549 NSCLC; experiment: NCI tumour cell line growth inhibition, 48 h
metric-name: TGI

Some molecules with known TGI results, for comparison:
>  <molecule>
c1ccc(NCn2cnc3ccccc32)cc1

>  <TGI>
> 100 µM

$$$$
>  <molecule>
Oc1ccccc1CNCc1nc2ccccc2[nH]1

>  <TGI>
> 100 µM

$$$$
>  <molecule>
O=C(O)c1ccc2c(c1C(=O)O)C(=O)OC2(c1ccc(O)cc1)c1ccc(O)cc1

>  <TGI>
> 100 µM

$$$$
>  <molecule>
CC(C)=CCC[C@@H](C)c1c(O)c(O)c(C)c2nccnc12

>  <TGI>
> 100 µM

$$$$

Sample CCC(=O)NC(Nc1cc(C)on1)(C(F)(F)F)C(F)(F)F — what was its TGI?
> 100 µM

Sample Oc1[nH]c2ccccc2c1N=Nc1nc(-c2ccc(Br)cc2)cs1 — what was its TGI?
70.8 µM

Sample CCN(CC)CCNC(=O)c1cc2cc(NC(=O)c3cc4cc([N+](=O)[O-])ccc4[nH]3)ccc2[nH]1 — what was its TGI?
> 100 µM
